For each entry below, report its DC50 value.
# Target: Cbl-b (Homo sapiens, UniProt Q13191)
# Construct: Cbl-b-HiBit KI Jurkat Cells were purchased from Promega; host or cells: Cbl-b-HiBiT knock-in Jurkat cells
# Sequence (Q13191 whole entry): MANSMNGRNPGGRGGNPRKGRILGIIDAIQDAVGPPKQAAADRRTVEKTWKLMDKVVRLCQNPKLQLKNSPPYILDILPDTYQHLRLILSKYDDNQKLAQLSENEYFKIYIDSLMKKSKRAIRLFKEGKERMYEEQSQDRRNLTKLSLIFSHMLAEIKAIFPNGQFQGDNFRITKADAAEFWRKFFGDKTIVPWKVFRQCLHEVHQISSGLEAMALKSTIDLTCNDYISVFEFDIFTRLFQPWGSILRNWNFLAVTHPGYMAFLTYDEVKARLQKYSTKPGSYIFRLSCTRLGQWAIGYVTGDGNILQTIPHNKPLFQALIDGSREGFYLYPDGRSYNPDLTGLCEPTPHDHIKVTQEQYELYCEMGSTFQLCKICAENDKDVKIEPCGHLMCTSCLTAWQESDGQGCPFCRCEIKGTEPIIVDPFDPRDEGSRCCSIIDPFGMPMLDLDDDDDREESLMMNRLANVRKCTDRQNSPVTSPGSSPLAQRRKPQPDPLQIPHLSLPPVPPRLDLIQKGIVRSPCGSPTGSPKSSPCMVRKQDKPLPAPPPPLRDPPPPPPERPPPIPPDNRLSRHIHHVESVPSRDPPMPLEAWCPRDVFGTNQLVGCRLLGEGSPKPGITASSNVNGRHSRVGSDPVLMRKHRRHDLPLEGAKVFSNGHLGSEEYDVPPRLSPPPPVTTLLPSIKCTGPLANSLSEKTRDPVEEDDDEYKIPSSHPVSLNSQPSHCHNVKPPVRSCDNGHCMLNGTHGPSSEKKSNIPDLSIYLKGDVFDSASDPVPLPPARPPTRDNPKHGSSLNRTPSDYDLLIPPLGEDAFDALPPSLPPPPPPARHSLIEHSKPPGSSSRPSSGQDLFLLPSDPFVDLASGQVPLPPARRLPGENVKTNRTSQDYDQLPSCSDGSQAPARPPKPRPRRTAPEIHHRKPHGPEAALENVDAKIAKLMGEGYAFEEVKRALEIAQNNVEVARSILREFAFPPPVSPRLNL
# Experimental details: Cbl-b Degradation Method A (FACS, anti-Cbl-b antibody staining)
# Format: cell-based
# Test context: Cbl-b-HiBit KI Jurkat Cells, incubated at least 20 hours; half maximal degradation; read-out: Cbl-b Degredation Method A IC50

Example entries begin here.
{"Compound": "Cn1cnnc1CC1(c2cccc(N3Cc4c(cc(N5CC6(CCN(CC7CCN(c8ccc9c(c8)C(=O)N(C8CCC(=O)NC8=O)C9=O)CC7)CC6)C5)cc4C(F)(F)F)C3=O)c2)COC1 (stereo not drawn) [Example 115]", "Target": "Cbl-b (Homo sapiens, UniProt Q13191)", "DC50": "5 to 50 nM"}
{"Compound": "Cn1cnnc1CC1(c2cccc(N3Cc4c(cc(CN5CCC[C@H](CN6CCN(C[C@H]7CC[C@@H](OC8CCN(c9ccc%10c(c9Cl)CN(C9CCC(=O)NC9=O)C%10=O)CC8)CC7)CC6)C5)cc4C(F)(F)F)C3=O)c2)COC1 (stereo partly drawn) [Example 165]", "Target": "Cbl-b (Homo sapiens, UniProt Q13191)", "DC50": "< 5 nM"}
{"Compound": "CC1CC(N2CCC(COCCOc3ccc4c(c3)C(=O)N(C3CCC(=O)NC3=O)C4=O)CC2)CN(Cc2cc3c(c(C(F)(F)F)c2)CN(c2cccc(C4(Cc5nncn5C)COC4)c2)C3=O)C1 (stereo not drawn) [Example 102]", "Target": "Cbl-b (Homo sapiens, UniProt Q13191)", "DC50": "> 500 nM"}
{"Compound": "Cn1cnnc1CC1(c2cccc(N3Cc4c(cc(CN5CCC(CN6CCN(c7ccc8c(c7)C(=O)N(C7CCC(=O)NC7=O)C8=O)CC6)CC5)cc4C(F)(F)F)C3=O)c2)COC1 (stereo not drawn) [Example 28]", "Target": "Cbl-b (Homo sapiens, UniProt Q13191)", "DC50": "> 500 nM"}
{"Compound": "CC1CN(Cc2cc3c(c(C(F)(F)F)c2)CN(c2cccc(C4(Cc5nncn5C)COC4)c2)C3=O)CCN1C[C@H]1CC[C@H](OC2CCN(c3ccc4c(c3F)CN(C3CCC(=O)NC3=O)C4=O)CC2)CC1 (stereo partly drawn) [Example 196]", "Target": "Cbl-b (Homo sapiens, UniProt Q13191)", "DC50": "< 5 nM"}

Please go through the list and note DC50 for each compound.
1. CC1CC(CN2CCC(CC3CCN(c4ccc5c(c4)C(=O)N(C4CCC(=O)NC4=O)C5=O)CC3)CC2)CN(Cc2cc3c(c(C(F)(F)F)c2)CN(c2cccc(C4(Cc5nncn5C)COC4)c2)C3=O)C1 (stereo not drawn) [Example 94]
2. Cn1cnnc1CC1(c2cccc(N3Cc4c(cc(CN5CCC(CN6CCC(COc7ccc8c(c7)C(=O)N(C7CCC(=O)NC7=O)C8=O)CC6)CC5)cc4C(F)(F)F)C3=O)c2)COC1 (stereo not drawn) [Example 84]

Response:
1. 5 to 50 nM
2. > 500 nM

// batch mode: one DC50 value per listed entry
1. Cn1cnnc1CC1(c2cccc(N3Cc4c(cc(CN5CCC[C@H](CN6CCC(CN7CCN(c8ccc9c(c8)C(=O)N(C8CCC(=O)NC8=O)C9=O)CC7)CC6)C5)cc4C(F)(F)F)C3=O)c2)COC1 (stereo partly drawn) [Example 101]
2. Cn1cnnc1CC1(c2cccc(N3Cc4c(cc(CN5CCC[C@H](CN6CCN(C[C@H]7CC[C@H](OC8CCN(c9ccc%10c(c9F)CN(C9CCC(=O)NC9=O)C%10=O)CC8)CC7)CC6(C)C)C5)cc4C(F)(F)F)C3=O)c2)COC1 (stereo partly drawn) [Example 148]

Response:
> 500 nM
< 5 nM
